// provenance: patent US20260167619A2

Item-by-item account of GI50
- TARGET SYSTEM: BaF3-WT cells (Homo sapiens)
- Sequence (P00533 whole entry, change not shown): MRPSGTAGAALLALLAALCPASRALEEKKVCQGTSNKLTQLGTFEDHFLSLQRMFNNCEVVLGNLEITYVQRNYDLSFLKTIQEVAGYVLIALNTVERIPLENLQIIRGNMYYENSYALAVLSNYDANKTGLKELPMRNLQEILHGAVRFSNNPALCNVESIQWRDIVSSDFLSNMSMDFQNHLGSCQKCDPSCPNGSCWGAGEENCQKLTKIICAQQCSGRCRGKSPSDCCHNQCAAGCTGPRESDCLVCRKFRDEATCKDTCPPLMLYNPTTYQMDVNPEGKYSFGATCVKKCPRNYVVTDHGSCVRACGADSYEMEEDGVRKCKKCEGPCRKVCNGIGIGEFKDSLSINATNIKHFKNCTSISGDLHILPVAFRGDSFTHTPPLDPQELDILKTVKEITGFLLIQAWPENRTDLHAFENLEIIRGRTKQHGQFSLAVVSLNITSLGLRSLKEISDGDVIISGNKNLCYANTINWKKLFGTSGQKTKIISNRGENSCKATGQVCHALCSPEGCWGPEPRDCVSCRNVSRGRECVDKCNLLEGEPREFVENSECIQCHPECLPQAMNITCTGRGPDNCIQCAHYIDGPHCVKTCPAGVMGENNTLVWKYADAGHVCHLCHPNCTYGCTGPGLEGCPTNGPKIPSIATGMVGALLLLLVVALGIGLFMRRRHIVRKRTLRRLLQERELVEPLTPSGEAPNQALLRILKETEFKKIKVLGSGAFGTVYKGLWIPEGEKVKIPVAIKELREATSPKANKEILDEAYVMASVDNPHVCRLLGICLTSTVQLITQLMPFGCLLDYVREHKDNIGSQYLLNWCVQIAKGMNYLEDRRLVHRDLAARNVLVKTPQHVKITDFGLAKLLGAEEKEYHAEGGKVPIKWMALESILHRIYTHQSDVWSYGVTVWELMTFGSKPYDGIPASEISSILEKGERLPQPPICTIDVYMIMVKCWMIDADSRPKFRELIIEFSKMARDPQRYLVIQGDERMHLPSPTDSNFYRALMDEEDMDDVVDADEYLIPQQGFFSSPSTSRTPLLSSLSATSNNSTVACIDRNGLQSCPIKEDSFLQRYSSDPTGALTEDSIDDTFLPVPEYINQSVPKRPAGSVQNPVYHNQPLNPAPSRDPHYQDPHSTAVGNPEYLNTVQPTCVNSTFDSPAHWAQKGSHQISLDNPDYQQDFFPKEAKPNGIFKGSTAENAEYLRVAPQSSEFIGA
- EXPERIMENT SUMMARY: Cell antiproliferation assay (CellTiter-Glo), BaF3-WT
- Format: cell-based
- CONDITION DETAILS: 48 h treatment, read-out: BaF3-WT IC50
- Procedure: BaF3 cells are treated with compounds diluted in 0.2% DMSO, dilution is done according to the following protocol: (1) make 500× stock solution in DMSO from 5 mM by 5-fold dilution, total 8 doses were included; (2) make 10× solution in cell culture medium by transferring 2 μl 500× stock solution into 98 μl medium; (3) 10 μl of 10× solution is added to cells and incubate for 48 h. […]

{"COMPOUND": "COc1cc(N2CCC(N3CCN(C)CC3)CC2)ccc1Nc1ncc(Cl)c(Nc2cccc3c2N(S(C)(=O)=O)CCC3)n1 [Example 10]", "UNIT SPEC": "nM", "GI50": 1870}
{"COMPOUND": "COc1cc(N2CCC(N3CCN(C)CC3)CC2)ccc1Nc1ncc(Cl)c(Nc2cccc3c2N(S(=O)(=O)CC2CC(F)(F)C2)CC3)n1 [Example 11]", "UNIT SPEC": "nM", "GI50": 2280}
{"COMPOUND": "COc1cc(N2CCC(N3CCN(C)CC3)CC2)ccc1Nc1ncc(Cl)c(Nc2ccc(F)c3c2N(S(C)(=O)=O)CC3)n1 [Example 1]", "UNIT SPEC": "nM", "GI50": 635}
{"COMPOUND": "CN1CCN(C2CCN(c3ccc(Nc4nc(Nc5cccc6c5N(S(C)(=O)=O)CC6)c5cc[nH]c5n4)c4c3CCO4)CC2)CC1 [Example 125]", "UNIT SPEC": "nM", "GI50": 394}
{"COMPOUND": "COc1cc(N2CCC(N3CCN(C)CC3)CC2)ccc1Nc1ncc(Cl)c(Nc2cccc3c2N(S(C)(=O)=O)CC3)n1 [Example 30]", "UNIT SPEC": "nM", "GI50": 411}
{"COMPOUND": "CN(C)C1CCN(c2ccc(Nc3ncc(Br)c(Nc4cccc5c4N(S(C)(=O)=O)CC5)n3)c3c2OCCO3)CC1 [Example 54]", "UNIT SPEC": "nM", "GI50": 372}
{"COMPOUND": "COc1cc(N2CCC(N3CCN(C)CC3)CC2)ccc1Nc1ncc(Cl)c(Nc2cccc3c2N(C(=O)N(C)C)CC3)n1 [Example 15]", "UNIT SPEC": "nM", "GI50": 4120}

* * *

Reported pIC50 values for a set of molecules
- TARGET SYSTEM: EGFR(Dell9_T790M_C797S) (aa 669-1210, in house) (Homo sapiens, UniProt P00533, T790M/C797S, form not given)
- Sequence (P00533 with tags, fused parts or gaps DEL746-750/T790M/C797S, form open): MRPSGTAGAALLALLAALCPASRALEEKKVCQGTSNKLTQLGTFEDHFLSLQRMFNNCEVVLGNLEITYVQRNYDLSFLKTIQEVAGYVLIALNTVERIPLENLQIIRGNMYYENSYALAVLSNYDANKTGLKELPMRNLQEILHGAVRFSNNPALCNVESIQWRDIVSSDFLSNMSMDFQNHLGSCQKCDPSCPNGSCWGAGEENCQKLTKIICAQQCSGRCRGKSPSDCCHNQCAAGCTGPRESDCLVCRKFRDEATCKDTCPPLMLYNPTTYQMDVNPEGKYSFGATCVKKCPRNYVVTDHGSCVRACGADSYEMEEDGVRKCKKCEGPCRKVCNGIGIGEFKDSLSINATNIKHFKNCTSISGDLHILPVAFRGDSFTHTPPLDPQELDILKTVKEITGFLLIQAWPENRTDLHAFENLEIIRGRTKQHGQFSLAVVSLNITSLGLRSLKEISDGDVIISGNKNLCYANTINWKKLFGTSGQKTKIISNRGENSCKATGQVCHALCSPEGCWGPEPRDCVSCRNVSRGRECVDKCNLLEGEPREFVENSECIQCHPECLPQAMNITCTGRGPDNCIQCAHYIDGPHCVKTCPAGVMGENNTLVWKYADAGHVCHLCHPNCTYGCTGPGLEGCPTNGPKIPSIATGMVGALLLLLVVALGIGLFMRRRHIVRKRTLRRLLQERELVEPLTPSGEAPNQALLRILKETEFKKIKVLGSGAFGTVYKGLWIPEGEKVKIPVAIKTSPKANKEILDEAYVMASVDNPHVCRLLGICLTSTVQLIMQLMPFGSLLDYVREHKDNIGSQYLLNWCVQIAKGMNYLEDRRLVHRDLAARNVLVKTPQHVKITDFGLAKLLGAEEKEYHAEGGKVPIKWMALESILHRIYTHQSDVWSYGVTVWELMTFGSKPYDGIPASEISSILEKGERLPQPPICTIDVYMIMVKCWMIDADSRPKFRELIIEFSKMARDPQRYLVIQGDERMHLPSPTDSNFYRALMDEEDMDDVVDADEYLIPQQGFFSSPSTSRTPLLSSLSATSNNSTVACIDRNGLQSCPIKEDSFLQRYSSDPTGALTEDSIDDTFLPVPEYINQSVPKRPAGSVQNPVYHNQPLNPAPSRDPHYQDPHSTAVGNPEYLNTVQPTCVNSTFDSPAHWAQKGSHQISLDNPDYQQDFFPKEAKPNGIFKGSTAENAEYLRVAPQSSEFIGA
- EXPERIMENT SUMMARY: Biochemical EGFR inhibition assay (TR-FRET), Del19/T790M/C797S mutant
- CONDITION DETAILS: ATP at Km, 15 min pre-incubation, 60 min reaction; read-out: Del_TM_CS (Km ATP) IC50
pIC50: −log10 of the molar value.
READOUT: pIC50

{"MOLECULE": "COc1cc(N2CCC(N3CCN(C)CC3)CC2)c(C)cc1Nc1nc(N)c(Br)c(Nc2cccc3c2N(S(C)(=O)=O)CC3)n1", "TEST VALUE": 8.54}
{"MOLECULE": "CC1Cc2c(N3CCN(C)CC3)ccc(Nc3ncc(Br)c(Nc4cccc5c4N(S(C)(=O)=O)CC5)n3)c2O1 (centres unmarked)", "TEST VALUE": 9.38}
{"MOLECULE": "COc1cc(C2CCN(CCO)CC2)c(C)cc1Nc1nc(Nc2cccc3c2N(S(C)(=O)=O)CC3)c2cc[nH]c2n1", "TEST VALUE": 8.66}
{"MOLECULE": "COc1cc(C2CCN(C)CC2)c(C)cc1Nc1nc(Nc2cccc3c2N(S(C)(=O)=O)CC3)c2cc[nH]c2n1", "TEST VALUE": 8.07}
{"MOLECULE": "COc1cc(N2CCC(N3CCN(C)CC3)CC2)ccc1Nc1ncc(Cl)c(Nc2cccc3c2N(S(=O)(=O)N(C)C)CC3)n1", "TEST VALUE": 8.21}
{"MOLECULE": "CN(C)C1CCN(c2c(F)cc(Nc3ncc(Br)c(Nc4cccc5c4N(S(C)(=O)=O)CC5)n3)c3c2CCO3)CC1", "TEST VALUE": 9.62}
{"MOLECULE": "COc1cc(N2CCC(N3CCN(C)CC3)CC2)ccc1Nc1nc(Nc2cccc3c2N(S(C)(=O)=O)CC3)c2sccc2n1", "TEST VALUE": 8.06}
{"MOLECULE": "COc1cc(N2CCC(N3CCN(C)CC3)CC2)ccc1Nc1nc(Nc2cccc3c2N(S(C)(=O)=O)CC3)c2[nH]ccc2n1", "TEST VALUE": 6.88}
{"MOLECULE": "COc1cc(N2CCC3(CCN(C)CC3)CC2)c(Cl)cc1Nc1ncc(Br)c(Nc2cccc3c2N(S(C)(=O)=O)CC3)n1", "TEST VALUE": 9.15}
{"MOLECULE": "COc1cc(N(C)CCN(C)C)ccc1Nc1nc(Nc2cccc3c2N(S(C)(=O)=O)CC3)c2cc[nH]c2n1", "TEST VALUE": 7.84}
{"MOLECULE": "COc1cc(Nc2nc(Nc3cccc4c3N(S(C)(=O)=O)CC4)c3cc[nH]c3n2)cc(F)c1N1CCC(N2CCN(C)CC2)CC1", "TEST VALUE": 8.19}
{"MOLECULE": "CCN1CCN(C2CCN(c3ccc(Nc4nc(Nc5cccc6c5N(S(C)(=O)=O)CC6)c5cn[nH]c5n4)cc3F)CC2)CC1", "TEST VALUE": 9.06}
{"MOLECULE": "COc1cc(-c2cnn(CCN3CCN(C)CC3)c2)ccc1Nc1nc(Nc2cccc3c2N(S(C)(=O)=O)CC3)c2cc[nH]c2n1", "TEST VALUE": 7.37}
{"MOLECULE": "COc1cc(N2CCC3(CC2)CN(C)C3)c(C)cc1Nc1nc(Nc2cccc3c2N(S(C)(=O)=O)CC3)c2cc[nH]c2n1", "TEST VALUE": 9.00}

* * *

- TARGET SYSTEM: EGFR(L858R_T790M_C797S) (aa695-end, Invitrogen) (Homo sapiens, UniProt P00533, C797S/L858R/T790M)
- Sequence (P00533 695-1210 T790M/C797S/L858R): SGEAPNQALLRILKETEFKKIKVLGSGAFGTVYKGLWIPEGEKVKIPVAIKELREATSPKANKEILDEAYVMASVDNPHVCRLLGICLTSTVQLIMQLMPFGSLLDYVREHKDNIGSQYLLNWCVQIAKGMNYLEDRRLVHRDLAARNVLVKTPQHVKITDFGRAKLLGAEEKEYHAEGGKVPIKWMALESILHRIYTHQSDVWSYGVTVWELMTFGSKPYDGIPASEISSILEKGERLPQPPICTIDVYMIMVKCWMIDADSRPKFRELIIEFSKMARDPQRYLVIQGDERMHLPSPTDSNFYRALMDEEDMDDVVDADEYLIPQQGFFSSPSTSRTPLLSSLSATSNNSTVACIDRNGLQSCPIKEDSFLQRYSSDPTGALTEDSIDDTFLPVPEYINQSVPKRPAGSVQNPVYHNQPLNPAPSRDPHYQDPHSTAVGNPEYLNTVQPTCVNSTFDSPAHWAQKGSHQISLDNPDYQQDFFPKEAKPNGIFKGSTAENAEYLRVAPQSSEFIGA
- EXPERIMENT SUMMARY: Biochemical EGFR inhibition assay (TR-FRET), L858R/T790M/C797S mutant
- CONDITION DETAILS: ATP at Km, 15 min pre-incubation, 60 min reaction; read-out: LR_TM_CS (Km ATP) IC50
Listed next: entries and their corresponding IC50.

{"SMILES RECORD": "COc1cc(N2CCC(N3CCN(C)CC3)CC2)ccc1Nc1ncc(Cl)c(Nc2ccc(Br)c3c2N(S(C)(=O)=O)CC3)n1", "UNIT SPEC": "nM", "IC50": 0.48}
{"SMILES RECORD": "CN1CCN(C2CCN(c3ccc(Nc4nc(Nc5cccc6c5N(S(C)(=O)=O)CC6)c5cc[nH]c5n4)cc3Cl)CC2)CC1", "UNIT SPEC": "nM", "IC50": 0.7}
{"SMILES RECORD": "COc1cc(N2CCC(N3CCN(C)CC3)CC2)ccc1Nc1ncc(C)c(Nc2cccc3c2N(S(C)(=O)=O)CC3)n1", "UNIT SPEC": "nM", "IC50": 0.14}
{"SMILES RECORD": "CN1CCN(C2CCN(c3ccc(Nc4nc(Nc5cccc6c5N(S(C)(=O)=O)CC6)c5cc[nH]c5n4)c4c3OCO4)CC2)CC1", "UNIT SPEC": "nM", "IC50": 1.2}

* * *

- TARGET SYSTEM: BaF3-Del_TM_CS cells (Homo sapiens, UniProt P00533, T790M/C797S, cells depend on it, form not given)
- Sequence (P00533 with tags, fused parts or gaps DEL746-750/T790M/C797S, form open): as the sequence (P00533 with tags, fused parts or gaps DEL746-750/T790M/C797S, form open) above
- EXPERIMENT SUMMARY: Cell antiproliferation assay (CellTiter-Glo), BaF3-Del_TM_CS
- Assay type: cell-based
- CONDITION DETAILS: 48 h treatment, read-out: BaF3-Del_TM_CS IC50
- Experimental: BaF3 cells are treated with compounds diluted in 0.2% DMSO, dilution is done according to the following protocol: (1) make 500× stock solution in DMSO from 5 mM by 5-fold dilution, total 8 doses were included; (2) make 10× solution in cell culture medium by transferring 2 μl 500× stock solution into 98 μl medium; (3) 10 μl of 10× solution is added to cells and incubate for 48 h. […]
Below, each of the compounds is paired with its reported GI50 value.

{"COMPOUND": "COc1cc(N2CCC(N3CCN(C)CC3)CC2)ccc1Nc1nc(Nc2cccc3c2N(S(C)(=O)=O)CC3)c2cc[nH]c2n1", "GI50 [nM]": 87.5}
{"COMPOUND": "COc1cc(N2CCC(N3CCN(C)CC3)CC2)ccc1Nc1ncc(Cl)c(Nc2cccc3c2N(S(=O)(=O)CCc2ccccc2)CC3)n1", "GI50 [nM]": 630}
{"COMPOUND": "CN1CCN(C2CCN(c3ccc(Nc4ncc(Br)c(Nc5cccc6c5N(S(C)(=O)=O)CC6)n4)c4c3CCO4)CC2)CC1", "GI50 [nM]": 19}
{"COMPOUND": "COc1cc(N2CCC(N3CCN(C)CC3)CC2)ccc1Nc1ncc(Cl)c(Nc2cccc3c2N(C(C)=O)CC3)n1", "GI50 [nM]": 183}
{"COMPOUND": "CN(C)C1CCN(c2ccc(Nc3ncc(Br)c(Nc4cccc5c4N(S(C)(=O)=O)CC5)n3)c3c2CCO3)CC1", "GI50 [nM]": 3.56}
{"COMPOUND": "COc1cc(N2CCC(N3CCN(C)CC3)CC2)ccc1Nc1ncc(Br)c(Nc2cccc3c2N(S(C)(=O)=O)CC3)n1", "GI50 [nM]": 4.25}
{"COMPOUND": "COc1cc(C2CCC(N(C)C)CC2)c(C)cc1Nc1nc(Nc2cccc3c2N(S(C)(=O)=O)CC3)c2cc[nH]c2n1 (stereo not shown)", "GI50 [nM]": 128}
